- Procedure Summary: Confirmation and Secondary Assay for Modulators of Hemoglobin Beta Chain Splicing at IVS2 654 locus (AID 910);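 also: HeLa cells stably carrying EGFP split by mutant beta-globin IVS2-654 intron; per-well total GFP intensity by laser scanning cytometry after 2-day treatment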
- Measurement Setup: HeLa EGFP-654 splicing reporter, GFP fluorescence, 48 h; series mostly up to 46.1 µM
Active and inactive are the calls of the source. Calls follow the shape of the dose curve; as a rule, active = well fitted activation curve with a large enough effect; inconclusive = small, poorly fitted or top-dose-only effect; inactive = flat fitted curve, though single readings scatter.
Recorded Endpoint: outcome

Molecule	outcome
C=C1CCC2C(CC2(C)C)C(=O)CCC1O (stereo unspecified)	inactive
NC1C(O)OC(CO)[C@@H](O)[C@@H]1O[C@H]1O[C@@H](C(=O)O)C(O)C(O)C1O (stereo partly specified)	inactive
COc1cc2c(cc1OC)C1C(=O)c3c(cc4c(c3O)C=CC(C)(C)O4)OC1CO2 (stereo unspecified)	inactive
CC1CC2C3CC(F)C4=CC(=O)C=C[C@@]4(C)[C@@]3(F)C(O)C[C@]2(C)[C@]1(O)C(=O)COC(=O)C(C)(C)C (stereo partly specified)	inactive

Query: Retrieve outcome measured for CC(CCC(=O)O)C1CCC2C3CC[C@H]4CC(O)CC[C@@]4(C)C3CC[C@@]12C (stereo partly specified) and print it.
Reply: inactive

Query: Quote outcome reported for C=C1c2cccc(O)c2C(O)=C2C(=O)[C@]3(O)C(O)=C(C(N)=O)C(=O)C(N(C)C)C3C(O)C12 (stereo partly specified) please.
Reply: inactive

Query: Please indicate outcome recorded for `CC1(C)C=Cc2c(cc3occ(-c4ccc5c(c4)OCO5)c(=O)c3c2O)O1`
Reply: inactive

Query: Read the entry CC(=O)OC(C)(C)C1Cc2cc3ccc(=O)oc3cc2O1 (stereo unspecified) and write its reported outcome.
Reply: inactive

Query: Fill in outcome for record CC1c2cccc(O)c2C(O)=C2C(=O)[C@]3(O)C(O)=C(C(N)=O)C(=O)C(N(C)C)C3C(O)C21 (stereo partly specified)
Reply: inactive

Query: Indicate its recorded outcome; the molecule in question is Cc1nnc(SCC2=C(C(=O)O)N3C(=O)C(NC(=O)Cn4cnnn4)[C@@H]3SC2)s1 (stereo partly specified)
Reply: inactive

Query: In one line, give reported outcome of the entry Nc1ncn(C2OC(CO)C(O)C2O)c(=O)n1 (stereo unspecified) .
Reply: inactive

Query: Give outcome for COC(=O)CC1[C@@]2(C)C[C@]34OC5(C)OC6(C7CC(=O)OC(c8ccoc8)[C@]7(C)CCC6(O5)[C@]13C)C(OC(C)=O)[C@]4(OC(C)=O)C2OC(C)=O (stereo partly specified)
Reply: inactive

Query: Kindly indicate its recorded outcome. Item: CC1(C)CC[C@]2(C(=O)O)CC[C@@]3(C)C(=CCC4[C@@]5(C)CCC(O)C(C)(C)C5CC[C@@]43C)C2C1 (stereo partly specified)
Reply: inactive

Query: Write down outcome measured for item `Cc1cc(=O)oc2cc(O)c(O)cc12`
Reply: inactive

Query: // Input: C=C1C(=O)C23C(O)C1CCC2[C@]12COC3(O)C(O)C1C(C)(C)CC[C@H]2O (stereo partly specified) . Output its outcome only.
Reply: inactive
